Reference source for all entries: patent US12187719B2

compounds and their reported DC50
Target: SMARCA2 (Homo sapiens)
Construct: such that the cells express both SMARCA2 and SMARCA4; endogenous in cells; host or cells: A549 (NSCLC) cells with SMARCA4 mutation corrected to wild type
Sequence (P51531 whole entry): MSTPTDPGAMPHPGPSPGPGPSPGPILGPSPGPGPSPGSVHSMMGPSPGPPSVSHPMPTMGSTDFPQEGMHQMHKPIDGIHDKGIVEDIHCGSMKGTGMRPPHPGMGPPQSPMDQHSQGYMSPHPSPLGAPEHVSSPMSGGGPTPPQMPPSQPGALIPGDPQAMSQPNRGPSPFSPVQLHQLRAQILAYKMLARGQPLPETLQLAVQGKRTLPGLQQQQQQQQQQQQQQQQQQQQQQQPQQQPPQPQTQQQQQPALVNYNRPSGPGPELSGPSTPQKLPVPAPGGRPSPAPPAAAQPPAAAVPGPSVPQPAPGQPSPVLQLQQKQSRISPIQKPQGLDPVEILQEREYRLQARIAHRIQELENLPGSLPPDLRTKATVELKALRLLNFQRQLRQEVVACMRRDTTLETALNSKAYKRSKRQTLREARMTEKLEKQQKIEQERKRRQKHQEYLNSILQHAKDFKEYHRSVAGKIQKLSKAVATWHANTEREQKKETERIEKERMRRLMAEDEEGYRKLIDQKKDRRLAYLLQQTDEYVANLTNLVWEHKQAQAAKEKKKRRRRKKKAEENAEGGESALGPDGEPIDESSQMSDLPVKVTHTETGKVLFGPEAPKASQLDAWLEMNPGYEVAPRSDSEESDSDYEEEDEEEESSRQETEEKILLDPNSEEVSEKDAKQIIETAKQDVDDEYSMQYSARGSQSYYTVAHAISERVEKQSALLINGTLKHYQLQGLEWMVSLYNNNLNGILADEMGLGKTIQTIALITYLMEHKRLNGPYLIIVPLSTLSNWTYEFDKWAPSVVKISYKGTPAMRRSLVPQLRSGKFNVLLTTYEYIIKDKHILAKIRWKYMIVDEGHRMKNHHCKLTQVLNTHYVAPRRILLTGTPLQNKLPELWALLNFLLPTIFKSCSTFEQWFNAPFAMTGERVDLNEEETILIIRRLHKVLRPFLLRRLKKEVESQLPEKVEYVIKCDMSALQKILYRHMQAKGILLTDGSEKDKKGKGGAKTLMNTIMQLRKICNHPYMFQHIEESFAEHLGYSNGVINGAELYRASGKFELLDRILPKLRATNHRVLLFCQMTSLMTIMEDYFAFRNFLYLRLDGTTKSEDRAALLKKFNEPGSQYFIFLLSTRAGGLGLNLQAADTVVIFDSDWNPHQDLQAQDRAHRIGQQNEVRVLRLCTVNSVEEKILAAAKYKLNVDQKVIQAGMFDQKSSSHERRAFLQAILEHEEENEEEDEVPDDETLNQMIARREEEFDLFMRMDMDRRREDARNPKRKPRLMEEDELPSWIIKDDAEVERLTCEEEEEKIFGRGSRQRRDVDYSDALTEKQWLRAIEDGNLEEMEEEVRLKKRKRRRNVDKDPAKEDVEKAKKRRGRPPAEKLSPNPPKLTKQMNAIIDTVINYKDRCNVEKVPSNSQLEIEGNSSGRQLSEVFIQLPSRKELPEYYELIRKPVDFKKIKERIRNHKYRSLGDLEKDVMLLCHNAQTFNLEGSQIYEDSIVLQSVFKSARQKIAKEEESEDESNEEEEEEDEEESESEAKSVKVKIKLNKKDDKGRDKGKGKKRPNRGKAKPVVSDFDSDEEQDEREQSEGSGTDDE
Experiment: Protein degradation assay in A549 cells, SMARCA2 levels by WES capillary electrophoresis
Assay type: cell-based
Conditions: A549 (NSCLC) cells with SMARCA4 mutation corrected to wild type; 18 h incubation; concentration at which half maximal degradation is achieved; normalised to GAPDH
Experimental: For the protein degradation assay, A549 (NSCLC) cells are used in which the inactivating SMARCA4 mutation has been corrected to wild type, such that the cells express both SMARCA2 and SMARCA4. […] SMARCA2 levels are determined on a WES capillary electrophoresis instrument (Proteinsimple) using rabbit anti-SMARCA2 antibody (1:25, Sigma #HPA029981), SMARCA4 antibody (CellSignaling #49360, 1:25), PBRM1 antibody (Bethyl #A301-591A-M, 1:40) and anti-GAPDH antibody (1:100, Abcam #ab9485) for normalization. […]
Quick note: give the figure in nM, leave out the unit.

Some compounds with recorded DC50:
DC50 in this record for Cc1ncsc1-c1ccc(CNC(=O)[C@@H]2C[C@@H](O)CN2C(=O)[C@@H](NC(=O)C2(F)CC2)C(C)(C)C)c(OCCCc2ccc(CN3CCN(c4cc(-c5ccccc5O)nnc4N)CC3)cc2)c1 : 58

Reported DC50 of Cc1ncsc1-c1ccc(CNC(=O)[C@@H]2C[C@@H](O)CN2C(=O)[C@@H](NC(=O)C2(F)CC2)C(C)(C)C)c(OCCc2ccc(CN3CCN(c4cc(-c5ccccc5O)nnc4N)CC3)cc2)c1 : 67

Reported DC50 ( Cc1ncsc1-c1ccc(CNC(=O)[C@@H]2C[C@@H](O)CN2C(=O)[C@@H](NC(=O)C2(F)CC2)C(C)(C)C)c(OCCCCOCCN2CCN(c3cc(-c4ccccc4O)nnc3N)CC2)c1 ) = 1000

Further cases:
Documented DC50 of Cc1ncsc1-c1ccc(CNC(=O)[C@@H]2C[C@@H](O)CN2C(=O)[C@@H](NC(=O)C2(F)CC2)C(C)(C)C)c(OCc2ccc(CN3CCN(c4cc(-c5ccccc5O)nnc4N)CC3)cc2)c1 : 56

Just so you know, measured DC50 for Cc1ncsc1-c1ccc(CNC(=O)[C@@H]2C[C@@H](O)CN2C(=O)[C@@H](NC(=O)C2(F)CC2)C(C)(C)C)c(OCCOCCOCCN2CCN(c3cc(-c4ccccc4O)nnc3N)CC2)c1 came out at 2540
